Kindly supply the reported koff values for the records listed here.
Biological target: T1, recombinant human domain 1-3His6 of the cation-independent mannose-6-phosphate receptor (human, UniProt P11717 41-467)
T1 construct: Biotinylated (NHS-PEG4-biotin) for BLI; Glycosylated; also called hDom1-3His6; hCI-M6PRD1-D3
Test: BLI at pH 7.4, 1st of 2 repeats
Give bare numbers, in s⁻¹.

anti-CI-M6PR VHH11 (VHH, His6-tagged; made in Pichia pastoris) VHH: QVQLQESGGGLVQAGDSLKLSCTASGPTFSEITGGWFRQVPGKEREFVASISSTGITTYYTDSVKGRFTVSRDNAKNTMYLQMNSLKPEDTGVYYCAARSTSRSIAITVGYDYWGQGTQVTVSS = 0.00317

Then this binder:
Entry under review: anti-CI-M6PR VHH6 (VHH, His6-tagged; made in E. coli) VHH: QVQLQESGGGLVQAGGSLRLSCAVSGSISSIGGMGWFRQAPGKQREFVAVILNNSGMTSYADSVKGRFTISRGNSKNTMYLQMNSLKPEDTAVYYCNYSGYWGQGTQVTVSS . Reported koff? 0.00352
